Measured Target: human CCR8 (human, UniProt P51685 1-355)
Test Details: cell-based or functional assay
Observation Type: Top plateau value (% of hCCL1 100 nM) with 5 µg/mL mAb, Protocol #3
Kindly format the answer as number then unit.

Completed entries (count: 3):
1) 3-21 (antibody, V domains shown) VH: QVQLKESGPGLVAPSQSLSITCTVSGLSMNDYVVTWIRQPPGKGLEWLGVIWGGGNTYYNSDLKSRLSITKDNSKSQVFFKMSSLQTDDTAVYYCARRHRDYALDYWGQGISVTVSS VL: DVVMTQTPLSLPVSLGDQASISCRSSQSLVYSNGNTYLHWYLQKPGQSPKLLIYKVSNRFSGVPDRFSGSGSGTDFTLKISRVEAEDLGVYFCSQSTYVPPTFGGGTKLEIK	133%
2) 3-82 (antibody, human IgG1, kappa, V domains shown, humanized, human IgG1 kappa) VH: QVQLVESGGGVVQPGRSLRLSCAASGFTFSNYRMHWVRQAPGKGLEWIAVIKVKSDNYGANYADSVKGRFTISRDNSKNTLYLQMNSLRAEDTAVYYCSSPTYPGSSGFAYWGQGTLVTVSS VL: DIQMTQSPSSLSASVGDRVTITCRASQDISNYLNWYQQKPDGTVKLLIYYTSRLHTGVPSRFSGSGSGTDYTLTISNLQQEDIATYFCQQGNKFPPTFGGGTKVEINR	794%
3) 3-43 (antibody, V domains shown) VH: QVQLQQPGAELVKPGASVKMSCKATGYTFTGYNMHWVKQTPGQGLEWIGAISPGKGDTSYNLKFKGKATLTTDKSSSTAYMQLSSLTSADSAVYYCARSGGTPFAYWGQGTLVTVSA VL: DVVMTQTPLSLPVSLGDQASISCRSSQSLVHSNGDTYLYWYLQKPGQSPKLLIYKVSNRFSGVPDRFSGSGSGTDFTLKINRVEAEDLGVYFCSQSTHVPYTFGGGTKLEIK	2880%

Below are some binders; for each one, tell me its Top plateau value (% of hCCL1 100 nM) with 5 µg/mL mAb, Protocol #3.
1. 3-13 (antibody, V domains shown) VH: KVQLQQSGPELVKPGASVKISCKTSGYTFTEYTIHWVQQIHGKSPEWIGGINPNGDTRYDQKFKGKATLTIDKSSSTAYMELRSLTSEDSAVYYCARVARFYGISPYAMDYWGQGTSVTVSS VL: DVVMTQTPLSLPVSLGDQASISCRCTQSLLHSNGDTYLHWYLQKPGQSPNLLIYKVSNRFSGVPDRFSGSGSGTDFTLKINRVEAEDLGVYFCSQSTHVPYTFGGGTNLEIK
2. 3-50 (antibody, V domains shown) VH: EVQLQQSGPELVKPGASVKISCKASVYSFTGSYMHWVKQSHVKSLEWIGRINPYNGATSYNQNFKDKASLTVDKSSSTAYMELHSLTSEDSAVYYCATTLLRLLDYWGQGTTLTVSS VL: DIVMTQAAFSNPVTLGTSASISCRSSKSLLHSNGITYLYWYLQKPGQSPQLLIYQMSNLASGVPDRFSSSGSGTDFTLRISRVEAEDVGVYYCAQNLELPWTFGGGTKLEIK

Reply:
663%
292%
